Consider the following molecules and their measured %Inh readings.
tested on: JAK1(JH2domain-pseudokinase); conditions: concentration: 1 μM, replicates: in singlicate; n = 1;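 note: KINOMEscan kinase panel screen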
Please reply with the bare figure in % and do not write the unit itself.

1. Nc1ncnc2scc(-c3ccc(NC(=O)Cc4cc(F)ccc4F)cc3)c12.O=C(O)C(F)(F)F [SB-731254-M] = 49
2. COc1cccc(CC(=O)N2CCc3cc(-c4cn(C)c5ncnc(N)c45)ccc32)c1 [GSK2608899] = 0
3. CC(=O)Nc1cn2nc(Oc3cccc(NC(=O)c4cccc(C(F)(F)F)c4)c3)ccc2n1 = 5
4. O=C(Nc1n[nH]c2nc(-c3ccccc3)ccc12)C1CC1 [SB-708999] = 0
5. CS(=O)(=O)c1cccc(CNc2nc(Nc3ccc4c(c3)CCC(=O)N4)ncc2C(F)(F)F)c1 = 94.3

Please report the recorded %Inh for COC(=O)Nc1nc2ccc(Oc3ccc(CC(=O)Nc4cc(C(F)(F)F)ccc4F)cc3)cc2[nH]1 [GW680903] . 0

Please report the recorded %Inh for CC(C)(C)c1ccc(C(=O)Nc2cn3cc(-n4ccnc4)ccc3n2)cc1 . 2

Please report the recorded %Inh for Cn1cc(-c2cnc(N)c3c(-c4ccc5c(c4)CCN5C(=O)Cc4ccccc4)csc23)cn1 [GSK2593074] . 0

Please report the recorded %Inh for CN(c1ccc(F)c(NC(=O)c2cccc(OC(C)(C)C#N)c2Cl)c1)c1ccc2nc(NC(=O)C3CC3)sc2n1 . 3

Please report the recorded %Inh for Cc1ccc(Nc2ccnc(Nc3ccc(C)c(F)c3)n2)cc1O.Cl [GW582868] . 62

Please report the recorded %Inh for COc1ccc(C)c(Nc2ccnc(Nc3ccc(-c4cnc[nH]4)cc3)n2)c1.Cl [GW784041] . 76

Please report the recorded %Inh for Nc1ncc(-c2cn[nH]c2)c2scc(-c3ccc4c(c3)CCN4C(=O)Cc3ccccc3)c12 [GSK2593067] . 0

Please report the recorded %Inh for COc1cccc(C2=C(Nc3cccc(O)c3)C(=O)NC2=O)c1 [SB-390771] . 0

Please report the recorded %Inh for Cc1ccc(NC(=O)c2ccc(Cl)c(Cl)c2)cc1-c1ccc(C(=O)Nc2ccncc2)cc1 [GSK1398460] . 0

Please report the recorded %Inh for COc1cccc(-c2nc(-c3ccccc3)[nH]c2-c2ccncc2)c1 [SB-610250] . 12

Please report the recorded %Inh for Fc1cc(Cl)ccc1Nc1ccnc2cc(-c3ccc(CN4CCOCC4)o3)ccc12 [GW560109] . 0

Please report the recorded %Inh for CC(C)NCC(Cc1ccccc1)NC(=O)c1cc(Br)c(-c2ccnc3[nH]ccc23)s1.Cl.Cl (stereo not drawn) [GSK1383281] . 0
